# system.tested: mouse BLyS protein (mouse, UniProt Q9WU72 69-309)
# Sequence (Q9WU72 69-309): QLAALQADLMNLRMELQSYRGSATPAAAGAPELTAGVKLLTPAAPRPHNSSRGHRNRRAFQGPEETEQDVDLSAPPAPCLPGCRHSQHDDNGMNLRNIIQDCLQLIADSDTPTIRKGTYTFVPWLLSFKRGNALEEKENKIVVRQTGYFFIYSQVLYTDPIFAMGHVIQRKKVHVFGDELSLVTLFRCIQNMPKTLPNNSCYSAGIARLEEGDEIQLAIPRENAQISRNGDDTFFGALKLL
# assay.overview: cell-based or functional assay
// reported mouse B lymphocyte proliferation (OD450 nm), antibody 4 nM per item
Numeric answer only, unit OD450 nm assumed.

>>> reported_value("111D10D6G3 (antibody, V domains shown, Mouse hybridoma monoclonal antibody purified on Protein G) VH: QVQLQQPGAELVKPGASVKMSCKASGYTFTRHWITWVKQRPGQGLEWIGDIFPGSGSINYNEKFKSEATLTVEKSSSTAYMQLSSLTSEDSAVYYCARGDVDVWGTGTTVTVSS VL: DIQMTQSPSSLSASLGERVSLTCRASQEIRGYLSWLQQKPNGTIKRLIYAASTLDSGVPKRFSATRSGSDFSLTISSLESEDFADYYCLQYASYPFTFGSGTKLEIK")
2710

Would you kindly look at the next entry?
Give me measured mouse B lymphocyte proliferation (OD450 nm), antibody 4 nM, please, for this binder: 97A3C2H4 (antibody, V domains shown, Mouse hybridoma monoclonal antibody purified on Protein G) VH: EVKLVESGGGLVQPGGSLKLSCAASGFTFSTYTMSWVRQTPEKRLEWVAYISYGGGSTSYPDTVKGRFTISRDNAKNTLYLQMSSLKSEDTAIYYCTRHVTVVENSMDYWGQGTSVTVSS VL: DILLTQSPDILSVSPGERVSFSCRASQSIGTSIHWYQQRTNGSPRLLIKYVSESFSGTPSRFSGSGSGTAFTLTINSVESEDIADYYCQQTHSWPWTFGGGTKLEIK
2430
